System: Plasmodium berghei
measurement notes: Screen against P. berghei liver stage (PbLuc), transformed with Luciferase, at 10uM
Type: functional, HepG2
measurement parameters: tested at 10 uM
The whole screen tested about 69,000 compounds, of which about 8,600 (12%) showed an effect of 50% or more. What follows is part of a selection rich in strong results, with near analogues and random picks from the rest.
value kind: INHIBITION (%)
The figure you give is taken to be in %; do not add the unit.

## Task For the compound "Cc1nnc(N2CC[C@H]3C[C@@H](C(=O)N4CCCC4)O[C@H]3C2)s1" , what INHIBITION is on record?
## Result -0.388

## Task For the compound CCOc1ccc(C(=O)CC(SC2CCCCC2)C(=O)O)cc1 (stereo not given) , what INHIBITION is on record?
## Result 16.1

## Task For the compound "CCN1CCC(CC(=O)N(C)CC(=O)c2ccc(O)cc2)CC1" , what INHIBITION is on record?
## Result 55

## Task For the compound CCOCCCNS(=O)(=O)c1ccc2c(c1)NC(=O)C(C)O2 (stereo not given) , what INHIBITION is on record?
## Result 2.55

## Task For the compound O=C(NCCc1ccc(F)cc1)NC1CCCc2c1cnn2CCO (stereo not given) , what INHIBITION is on record?
## Result 18.3

## Task For the compound "CC(C)=CCN1C(=O)[C@@H]2CC[C@H]1CN(C(=O)CCc1n[nH]c(C)c1C)C2" , what INHIBITION is on record?
## Result 43.8

## Task For the compound "CN1CCc2cc(C(=O)N(C)C)c(NCC3CC3)nc2CC1" , what INHIBITION is on record?
## Result 2.59

## Task For the compound CC(C(=O)NCc1ccc(N2CCCCC2)nc1)S(C)(=O)=O (stereo not given) , what INHIBITION is on record?
## Result 9.54

## Task For the compound Cc1ncc(CN2CCN(c3ccc4nncn4n3)C(C)C2)s1 (stereo not given) , what INHIBITION is on record?
## Result 8.64

## Task For the compound CC1CN(Cc2cnn(C)c2)CCN1c1ccc2nncn2n1 (stereo not given) , what INHIBITION is on record?
## Result 10

## Task For the compound O=C(NCCC1=CCCCC1)NC1CCCc2c1cnn2CCO (stereo not given) , what INHIBITION is on record?
## Result 62

## Task For the compound "Cc1ccc(N2CC[C@H]3C[C@@H](C(=O)N4CCOCC4)O[C@H]3C2)nn1" , what INHIBITION is on record?
## Result 34.1

## Task For the compound "O=C(c1ccncc1)N1Cc2ccccc2OC2(CCOCC2)C1" , what INHIBITION is on record?
## Result 20.5

## Task For the compound CC1CN(c2ccc(C#N)cn2)CCN1c1ccc2nncn2n1 (stereo not given) , what INHIBITION is on record?
## Result -9.69

## Task For the compound "CN(Cc1n[nH]c2c1CCC2)C(=O)CCc1cc2n(n1)CCCNC2" , what INHIBITION is on record?
## Result 0.72

## Task For the compound "CCCN1CCC(CC(=O)N(C)CC(=O)c2ccc(O)cc2)CC1" , what INHIBITION is on record?
## Result 56.1

## Task For the compound CC1CN(Cc2cccc(C#N)c2)CCN1c1ccc2nncn2n1 (stereo not given) , what INHIBITION is on record?
## Result 53.5

## Task For the compound CCc1nc(CN(C)C2CCCN(c3cccnn3)C2)no1 (stereo not given) , what INHIBITION is on record?
## Result 14.1

## Task For the compound Cc1ccccc1C(CC(=O)N1CCc2sccc2C1)NC(N)=O (stereo not given) , what INHIBITION is on record?
## Result 3.3

## Task For the compound Cc1ccsc1CNC(=O)NC1CCCc2c1cnn2CCO (stereo not given) , what INHIBITION is on record?
## Result 13.4

## Task For the compound "Cc1nc(N)sc1C(=O)N1Cc2ccccc2OC2(CCOCC2)C1" , what INHIBITION is on record?
## Result 61.7

## Task For the compound COc1ccc(CNC(=O)NC(C)(CO)C2CC2)c(C(F)(F)F)c1 (stereo not given) , what INHIBITION is on record?
## Result 17.8

## Task For the compound "CN(C)C[C@H]1C[C@@H]2CN(C(=O)c3ccno3)C[C@@H]2O1" , what INHIBITION is on record?
## Result 34.9

## Task For the compound "CNC(=O)[C@H]1C[C@@H]2CCN(c3nnc(C)s3)C[C@@H]2O1" , what INHIBITION is on record?
## Result 21.8

## Task For the compound Cc1ccc(CNC(=O)NC2CCCc3c2cnn3CCO)cn1 (stereo not given) , what INHIBITION is on record?
## Result 53.4

## Task For the compound "Cc1ccc(NC(=O)NC(C)(C)c2noc(C)n2)cc1" , what INHIBITION is on record?
## Result 13.6

## Task For the compound "CCCN1CCC(CC(=O)NCc2cc(O)ncn2)CC1" , what INHIBITION is on record?
## Result 28.7

## Task For the compound CC1COCCN1Cc1nc(-c2cccc(C(F)(F)F)c2)no1 (stereo not given) , what INHIBITION is on record?
## Result 9.54

## Task For the compound Cc1cncc(C(=O)N2CCC3(CC2)NC(=O)CC3c2ccccc2)c1 (stereo not given) , what INHIBITION is on record?
## Result -3.88

## Task For the compound "CCCNc1nnc(S(=O)(=O)CCOCC)s1" , what INHIBITION is on record?
## Result 5.05
